Sourced from ChEMBL document CHEMBL1152747

Tested on: HT-29
PROTOCOL_TEXT: Antiproliferative activity against human HT-29 cells
Format: functional, cell-based
pIC50: −log10 of the molar value.
Listed here are molecules together with their documented pIC50.

- COMPOUND_STRUCTURE: "CC(C)NC(=O)Nc1cc(-c2ccnc3c(C(=O)c4cccs4)cnn23)ccc1F"
  TESTED_SYSTEM: "HT-29"
  pIC50: 7.77
- COMPOUND_STRUCTURE: "CC(C)CC(=O)Nc1cc(-c2ccnc3c(C(=O)c4cccs4)cnn23)ccc1F"
  TESTED_SYSTEM: "HT-29"
  pIC50: 7.80
- COMPOUND_STRUCTURE: "CC(C)CC(=O)Nc1ccc(-c2ccnc3c(C(=O)c4cccs4)cnn23)s1"
  TESTED_SYSTEM: "HT-29"
  pIC50: 6.17
- COMPOUND_STRUCTURE: "CC(C)CCNc1cccc(-c2ccnc3c(C(=O)c4cccs4)cnn23)c1"
  TESTED_SYSTEM: "HT-29"
  pIC50: 6.35
- COMPOUND_STRUCTURE: "CC(C)CNC(=O)c1cccc(-c2ccnc3c(C(=O)c4cccs4)cnn23)c1"
  TESTED_SYSTEM: "HT-29"
  pIC50: 6.82
